Test system: SF-295 CNS
method.description: NCI tumour cell line growth inhibition, 48 h; in the data active means GI50 below about 0.43 µM; inactive means the rest
Possible outcomes: True = active, False = inactive

molecule: O=c1oc2ccc(I)cc2c(=O)n1-c1ccc(Br)cc1F
experimental.target: SF-295 CNS
label.class: False

molecule: CC(C)C[C@H](NC(=O)CNC(=O)c1cc(Cl)ccc1Cl)B(O)O
experimental.target: SF-295 CNS
label.class: True

molecule: COc1c/c(=C2\C=c3ccccc3=N2)[nH]/c1=C\c1[nH]c(C)cc1C
experimental.target: SF-295 CNS
label.class: True

molecule: COc1cc2c(cc1OC(C)C)[C@H](c1ccc(Cl)cc1)N(c1ccc(N(C)CC3CCC(N4CCN(C)C(=O)C4)CC3)cc1)C(=O)C2 (stereo partly drawn)
experimental.target: SF-295 CNS
label.class: False

molecule: CCc1ccc(Oc2c(-c3ccc(OCc4ccc(Cl)cc4)cc3O)n[nH]c2C(F)(F)F)cc1
experimental.target: SF-295 CNS
label.class: False

molecule: CCOC(=O)C1=CCCC[C@H]1S(=O)(=O)Nc1ccc(F)cc1Cl
experimental.target: SF-295 CNS
label.class: False

molecule: COc1ccc2c(c1)C(=O)c1c-2n(CCCN(C)C)c(=O)c2ccccc12
experimental.target: SF-295 CNS
label.class: True

molecule: Cc1cc2nc(NCCN)n(Cc3ccc(F)c(Cl)c3)c2cc1C
experimental.target: SF-295 CNS
label.class: False

* * *

Tested on: SK-MEL-28 melanoma
method.description: NCI tumour cell line growth inhibition, 48 h
Collected TGI values appear next to each entry.

compound: O=C(O)c1cc(-c2ccc3cc4c(cc3c2)OCO4)nc2ccccc12
TGI: > 100 µM

compound: O=C1C=C(Nc2ccc(Cl)cc2Cl)c2ccccc2C1=O
TGI: > 100 µM

compound: C/C(=N\N=C(N)N)C(CN1CCCCC1)C(c1ccccc1)c1c(O)c2ccccc2oc1=O (stereo unspecified)
TGI: > 100 µM

compound: NC(=O)C1CCCN1C(=O)C(Cc1cnc[nH]1)NC(=O)C1CCCC1 (stereo unspecified)
TGI: > 100 µM

compound: CCc1cccc(C(C)C)c1NC(=O)C(=O)C1C(=O)Nc2ccccc2S1=O (stereo unspecified)
TGI: > 100 µM

compound: COc1ccc(C(=O)C#Cc2cn(C3CC(O)C(CO)O3)c(=O)[nH]c2=O)cc1 (stereo unspecified)
TGI: 50.5 µM

* * *

TGI values, listed per item
System: LOX IMVI melanoma
method.description: NCI tumour cell line growth inhibition, 48 h
observable: TGI

molecule: C=CCNC(=O)NCCCCC(NC(C)=O)C(=O)NCc1ccccc1 (stereo not drawn)
result: > 100 µM
//
molecule: CNC(=O)C(C)NC(=O)C(Cc1ccccc1)NC(=O)c1ccccc1 (stereo not drawn)
result: > 100 µM
//
molecule: CC(=O)O[C@@H]1C[C@]2(C(=O)c3ccccc3)C(=O)C(=O)S[C@]12c1ccccc1
result: > 100 µM

* * *

Tested on: IGROV1 ovarian
method.description: NCI tumour cell line growth inhibition, 48 h
observable: TGI

compound: Cc1cc(NC2=CC(=O)C(=O)c3ccccc32)no1
observable: TGI
result: 21.8 µM

compound: Cc1cc(S(=O)(=O)Nc2n[nH]c(-c3ccc(Cl)cc3)n2)c(SSc2cc(Cl)c(C)cc2S(=O)(=O)Nc2n[nH]c(-c3ccc(Cl)cc3)n2)cc1Cl
observable: TGI
result: 69.2 µM

compound: NC(=O)NNC(=O)CCn1[nH]c(=O)c(Cl)c(Cl)c1=O
observable: TGI
result: > 100 µM

compound: COc1ccc(C(c2ccccc2)(c2ccc(OC)cc2)N2C(=O)NC3C(CCCCC(=O)NCCCCCCOP(OCCC#N)N(C(C)C)C(C)C)SCC32)cc1 (stereo not drawn)
observable: TGI
result: 40.3 µM

compound: CC(=O)c1nc2ccccc2n1C(C)C(=O)c1ccccc1 (stereo not drawn)
observable: TGI
result: > 100 µM

compound: Cc1c2ccccc2c(C2C3C(=O)N(c4ccc(Br)cc4)C(=O)C3ON2C(C(N)=O)c2ccccc2)c2ccccc12 (stereo not drawn)
observable: TGI
result: 18.2 µM

compound: Oc1ccc(C=Nc2ccccc2O)cc1
observable: TGI
result: > 100 µM

compound: CC(C)(O)C(O)COc1c2c(cc3oc(=O)ccc13)OCO2 (stereo not drawn)
observable: TGI
result: > 100 µM

compound: CSc1ccc2c(cc1=O)[C@@H](NC(=O)c1cccc([N+](=O)[O-])c1)CCc1cc(O)c(O)c(O)c1-2
observable: TGI
result: > 100 µM

compound: COC(=O)CCC(=O)c1ccc2c(c1)CCC2
observable: TGI
result: > 100 µM

compound: COC(COC(N)=O)C1=C(N2CC2)C(=O)C(C)=C(N2CC2)C1=O (stereo not drawn)
observable: TGI
result: 0.995 µM

compound: O=c1c2c(nc3n1CCS3)[nH]c1cc([N+](=O)[O-])ccc12
observable: TGI
result: > 100 µM

compound: O=C1C2C(C(=O)N1c1ccccc1)C1(c3ccccc3)CCC2(C(=O)c2ccccc2)O1 (stereo not drawn)
observable: TGI
result: > 10 µM

compound: O=C(O)CCNCC(=O)O
observable: TGI
result: > 100 µM

compound: CCn1cc2c(=O)n3ncn(-c4ccc(Br)cc4)c3nc2n1
observable: TGI
result: > 100 µM

compound: N#CC12C(=O)N3C(=NC(c4ccco4)NC3c3ccco3)C1(C#N)C(c1ccco1)NC1=C2CCCC1 (stereo not drawn)
observable: TGI
result: > 100 µM

compound: O=c1c2cc(-c3ccccc3)cnc2sn1-c1ccc(Br)cc1
observable: TGI
result: > 100 µM

compound: CC1(C)OC2C(CCP(=O)(O)O)OC(c3nc(C(N)=O)cs3)C2O1 (stereo not drawn)
observable: TGI
result: > 100 µM

compound: C[n+]1cccc(NC(=O)c2ccc(NC(=O)C34CCC(C(=O)Nc5ccc(C(=O)Nc6ccc[n+](C)c6)cc5)(CC3)CC4)cc2)c1
observable: TGI
result: > 100 µM

compound: O=C1Nc2c(ccc(Cl)c2Cl)/C1=C/c1cc(Br)c(O)c(Br)c1
observable: TGI
result: > 55.8 µM

compound: Cc1ccc(O)c(NC(=O)c2cccc(Nc3ccnc(C(F)(F)F)c3)c2)c1
observable: TGI
result: 28.1 µM

compound: CCCCN1C(=O)C2Cc3c([nH]c4ccccc34)C(c3cccc(O)c3)N2C1=O (stereo not drawn)
observable: TGI
result: 31.3 µM

compound: COc1ccc(Cc2c3cc(O)c(=O)cc-3ccn2C)cc1
observable: TGI
result: > 100 µM
